System: HL-60(TB) leukemia
Assay: NCI tumour cell line growth inhibition, 48 h; in the data active means GI50 below about 0.43 µM; inactive means the rest
A correct response names exactly one class from active, inactive

// param item: CC1(C)[C@@H](OC(N)=O)[C@H]2O[C@H]2[C@]2(C=O)[C@H]3CC[C@]4(C)[C@@H](c5ccc(=O)oc5)[C@@H](Cl)C[C@]4(O)C3=CC[C@@H]12 ; yields the recorded call active

// param item: C1C[OH+]CC[OH+]CC[OH+]CC[OH+]CC[OH+]1.[Cl-].[V] ; yields the recorded call inactive

// param item: CC(C)C[C@H](NC(=O)/C=C/Cn1ccc2ccccc2c1=O)B(O)O ; yields the recorded call inactive

* * *

System: NCI/ADR-RES ovarian
Experiment: NCI tumour cell line growth inhibition, 48 h
For each entry below, report its TGI value.

Which TGI is reported for this compound? Cc1[nH]c2ccccc2c(=O)c1CC=C(Cl)Cl > 100 µM

Which TGI is reported for this compound? Cn1c(COC(=O)Nc2ccccc2)c(COC(=O)Nc2ccccc2)c2ccc3cc(Cl)c(Cl)cc3c21 66.7 µM

Which TGI is reported for this compound? CCn1c(-c2ccc(OC(C)=O)cc2)c(C)c2cc(OC(C)=O)ccc21 > 100 µM

Which TGI is reported for this compound? COC1C=COC2(C)Oc3c(C)c(O)c4c(O)c(c(C5SCCS5)c(O)c4c3C2=O)NC(=O)C(C)=C/C=C\C(C)C2OC(C)(C)OC(C2C)C(C)C(OC(C)=O)C1C (configuration not stated) > 100 µM

Which TGI is reported for this compound? CC12CCC(O)CC1CCC1C2CCC2(C)C(C(=O)CC(O)C(F)(F)F)CCC12 (configuration not stated) > 100 µM

Which TGI is reported for this compound? Cc1ccc(O)c(-c2cscn2)c1 > 100 µM

Which TGI is reported for this compound? C#C[C@]1(O)CC[C@H]2[C@@H]3CCC4=C/C(=N/OC(=O)c5cccc6c(=O)c7ccccc7[nH]c56)CC[C@@H]4[C@H]3CC[C@@]21C > 100 µM

* * *

For each entry below, report its TGI value.
Tested on: SNB-75 CNS
Experiment: NCI tumour cell line growth inhibition, 48 h

Which TGI is reported for this compound? O=C1Nc2ccc(F)cc2/C1=C/c1ccc[nH]1 > 25 µM

Which TGI is reported for this compound? O=c1oc2ccc([N+](=O)[O-])cc2c(Nc2ccc3c(c2)Oc2ccccc2O3)c1[N+](=O)[O-] > 100 µM

Which TGI is reported for this compound? COc1ccc(N2C(=O)CSC2c2c[nH]c3ccccc23)cc1 (configuration not stated) > 100 µM

Which TGI is reported for this compound? CCCSc1nc(COC(=O)NC)c(COC(=O)NC)n1C > 100 µM

Which TGI is reported for this compound? C=CC[C@]12C=C(OC)[C@@H](O)[C@](OC)(C(c3cc(OC)c4c(c3)OCO4)[C@H]1C)[C@H]2OC(C)=O (some centres not stated) > 100 µM

Which TGI is reported for this compound? COc1ccc(OC)c2c(C(=O)O)c(Cc3ccccc3)ccc12 > 100 µM

Which TGI is reported for this compound? [N-]=[N+]=NC1=C(c2ccccn2)C(=O)c2cccc3cccc1c23 > 100 µM

Which TGI is reported for this compound? CC(=O)O[C@]12CCCCCC1C1(O)C(O)CCCC[C@H]12 (some centres not stated) > 100 µM

Which TGI is reported for this compound? Nc1nc(F)nc2c1ncn2C1OC(CO)C(O)C1O (configuration not stated) > 100 µM

Which TGI is reported for this compound? C=CCOc1ccc(C2(O)c3ccccc3C3=NCCCN32)cc1 (configuration not stated) > 100 µM

Which TGI is reported for this compound? CCOC(=O)c1ccc(C)c(N=NN(C)C)c1 > 100 µM

Which TGI is reported for this compound? O=C1CCCC[C@H]1[C@H]1CCC[C@@H]([C@H]2CCCCC2=O)C1=O > 100 µM

Which TGI is reported for this compound? CCOC(=O)NC(Nc1ccc([N+](=O)[O-])cc1)(C(F)(F)F)C(F)(F)F > 100 µM

Which TGI is reported for this compound? COc1nc2nccnc2c(=O)n1C > 10 µM

Which TGI is reported for this compound? OCc1ccc(C2CC(c3ccco3)=NN2c2ccccc2)o1 (configuration not stated) > 100 µM

Which TGI is reported for this compound? O=C1NC2OC(C(O)CO)C(O)C2O1 (configuration not stated) > 100 µM

Which TGI is reported for this compound? O=C(Nc1c(Cl)cc([N+](=O)[O-])cc1Cl)C(=O)C(C1OC(=O)c2ccccc21)[N+](=O)[O-] (configuration not stated) > 100 µM

Which TGI is reported for this compound? O=c1c2ccccc2c(=O)c2c1[nH]c1c(-c3ccccc3)c(-c3ccccc3)c(=O)c12 52.1 µM

Which TGI is reported for this compound? COc1ccc(-c2nn(-c3ccc(NC(=O)Nc4cc(C(F)(F)F)cc(C(F)(F)F)c4)cc3)cc2-c2ccncc2)cc1Cl 8.11 µM

Which TGI is reported for this compound? COc1cc2c3c(c1OC)C1(C=CC(=O)C=C1)C[C@H]3N(C)CC2 > 100 µM

Which TGI is reported for this compound? CC(C(O)Cc1ccccc1)N(C)N=Nc1ccc([N+](=O)[O-])cc1 (configuration not stated) > 100 µM

Which TGI is reported for this compound? Cn1c2ccccc2c(=O)c2ccc(Cl)cc21 > 10 µM

Which TGI is reported for this compound? Oc1cccc(-c2nc3cc(F)ccc3s2)c1 39.4 µM

Which TGI is reported for this compound? CCOc1cc(C(C)(C)C)ccc1C1=N[C@@](C)(c2ccc(Cl)cc2)[C@@](C)(c2ccc(Cl)cc2)N1C(=O)N1CCN(CCCS(C)(=O)=O)CC1 17.3 µM

Which TGI is reported for this compound? CCOC(=O)C1C2CCC1CC(=NNc1ccc([N+](=O)[O-])cc1[N+](=O)[O-])C2 (configuration not stated) > 50 µM

Which TGI is reported for this compound? Cc1ccc2c(c1)C(=O)C1(C2)Cc2cccc(C)c2C1=O (configuration not stated) > 100 µM

Which TGI is reported for this compound? CCn1c(SCc2ccc(C)cc2)nnc1-c1nn(-c2ccc(Cl)cc2Cl)c(-c2ccc(Cl)cc2)c1C 11.7 µM

* * *

For each entry below, report its TGI value.
System: SK-OV-3 ovarian
Experiment: NCI tumour cell line growth inhibition, 48 h

Which TGI is reported for this molecule? On1c(-c2ccccc2)nc2ccccc2c1=S > 100 µM

Which TGI is reported for this molecule? O=C1Nc2ccc(F)cc2/C1=C/c1ccc[nH]1 > 25 µM

Which TGI is reported for this molecule? Nc1ccn(C2CCC(CO)O2)c(=O)n1 (stereo unspecified) > 1000 µM

Which TGI is reported for this molecule? O=C1NC(=O)C(CC2CCCCCCCCCCC2=O)C(=O)N1 (stereo unspecified) > 100 µM

Which TGI is reported for this molecule? CCC1(C)C=Cc2c(cc(O)c3c(=O)c4ccccc4n(C)c23)O1 (stereo unspecified) > 10 µM

Which TGI is reported for this molecule? C[N+]12CCCCC1C(CN1C(=O)Cc3c4ccccc4c(c4ccccc34)CC1=O)CCC2 (stereo unspecified) > 100 µM

* * *

Tested on: EKVX NSCLC
Experiment: NCI tumour cell line growth inhibition, 48 h; in the data active = GI50 below about 0.43 µM; inactive = the rest
A correct response names exactly one class from true (1) (active), false (0) (inactive)

// param item: CC1(C)[C@@H](OC(N)=O)[C@H]2O[C@H]2[C@]2(C=O)[C@H]3CC[C@]4(C)[C@@H](c5ccc(=O)oc5)[C@@H](Cl)C[C@]4(O)C3=CC[C@@H]12 ; yields the recorded call true (1)

// param item: O=c1cccc(C#CC#CC2=CCCCC2)o1 ; yields the recorded call false (0)

// param item: CCSc1nc(SCC)c2cn[nH]c2n1 ; yields the recorded call false (0)

* * *

For each entry below, report its TGI value.
System: MOLT-4 leukemia
Test: NCI tumour cell line growth inhibition, 48 h

TGI of Nc1ccc(C(=O)N2CCC[C@H]2CO)c(N)c1 on MOLT-4 leukemia? > 100 µM

TGI of O=C(O)[C@H](NS(=O)(=O)c1ccc([N+](=O)[O-])cc1)c1ccccc1 on MOLT-4 leukemia? > 100 µM

TGI of CCC1(C)C=Cc2c(cc(O)c3c(=O)c4ccccc4n(C)c23)O1 (stereo not given) on MOLT-4 leukemia? > 10 µM

TGI of ClCC[N+]12CC[N+](CCCl)(CC1)C2 on MOLT-4 leukemia? > 100 µM

TGI of CC(C)=CCNc1ncnc2c1ncn2CCC#N on MOLT-4 leukemia? > 100 µM

* * *

Test system: K-562 leukemia
Assay: NCI tumour cell line growth inhibition, 48 h
measuredParameter: TGI

TGI of O=C(O)c1ccc(OCc2nc3cc(C(F)(F)F)ccc3nc2-c2ccccc2)cc1 on K-562 leukemia? > 100 µM

TGI of C1C[OH+]CC[OH+]CC[OH+]CC[OH+]CC[OH+]1.[Cl-].[V] on K-562 leukemia? > 100 µM

TGI of Cn1c2ccccc2c(=O)c2ccc(Cl)cc21 on K-562 leukemia? > 10 µM
